- testTarget: T1, Recombinant human CD38 protein (R&D, Catalog 2404-AC-010) (human, UniProt P28907 43-300)
- T1 construct: In the MST assay the protein was labeled with NT647 (red-maleimide kit) and used at 5 nM; also called purified CD38 protein; purified human CD38 protein
- measurementNotes: MST, NT647-labeled recombinant human CD38 at 5 nM, peptide titrated, 37 C
testReadout: Kd (nM)

[A] FSRDWTSGGSK (N-terminal acetyl (AC); C-terminal amide (NH2)) [AC-SL028-GGS (AC-Phe-Ser-Arg-Asp-Trp-Thr-Ser-Gly-Gly-Ser-Lys-NH2)]
[B] H-KGGSFSRDWTS-NH2 (Synthetic peptide, high score cluster B) [GGS-SL028 (H-Lys-Gly-Gly-Ser-Phe-Ser-Arg-Asp-Trp-Thr-Ser-NH2)]
Problem: Could you check which of A and B has a smaller value for Kd? Your answer should be the label attached to the chosen record.
Solution: B
